Reported YAP1 (% UTC) values follow for various substances
# Tested on: Yap1 mRNA
# test.summary: Antisense inhibition of human Yap1 in A-431 cells by cEt gapmers, single dose (Example 4, RTS4814)
# Type: cell-based
# conditions: Table 16; A-431 cells, 5,000 cells per well, free uptake, 2,000 nM, approximately 48 hours; RTS4814; normalized to RIBOGREEN; Yap1 mRNA relative to untreated control cells
Strand notation (5' to 3'): a small letter for the sugar, then the base; units joined by * are phosphorothioate-linked, units joined directly phosphodiester-linked; [ ] holds rarer units or linkages, { } end groups; capitals alone tell only the bases. k = constrained ethyl (cEt); [5mC] = 5-methylcytosine; d = 2'-deoxy (DNA)
State just the number; it will be interpreted in % UTC.

Worked cases, answers included:
substance	result.unit	reported.result
1074530 (k[5mC]*kT*kA*dA*dA*d[5mC]*dT*dA*d[5mC]*dT*dT*d[5mC]*dA*kA*kA*k[5mC]; antisense) [Compound 1074530]	% UTC	88
1074594 (antisense kT*kA*kG*dG*dA*dG*d[5mC]*dA*dA*dG*dT*d[5mC]*dT*kT*kG*kT) [Compound 1074594]	% UTC	6
1076418 (kT*kA*kT*dA*dA*dT*dA*dA*d[5mC]*d[5mC]*d[5mC]*dA*dT*kT*kG*kT; antisense) [Compound 1076418]	% UTC	63
1074754 (k[5mC]*kT*kT*dT*dT*dA*d[5mC]*dA*dT*dT*dA*dG*dG*kA*kA*k[5mC]) [Compound 1074754]	% UTC	11
1076258 (k[5mC]*kT*kT*dT*dA*dG*dG*dT*dG*d[5mC]*d[5mC]*dT*d[5mC]*k[5mC]*kT*kT; antisense) [Compound 1076258]	% UTC	10

YAP1 (% UTC) reported for this substance 1076514 (antisense k[5mC]*k[5mC]*kT*dT*dA*dG*dG*dA*dG*dA*dT*dG*d[5mC]*kA*k[5mC]*k[5mC]) [Compound 1076514] : 18
